System: MALME-3M melanoma
EXPERIMENT NOTES: NCI tumour cell line growth inhibition, 48 h
Overview of recorded TGI for various compounds

Reference set, count: 3
Quick one: TGI for Cc1cc(O)ccc1C1(c2ccc(F)cc2)OC(=O)c2ccccc21 (stereo not given) ? 26.8 µM

Do the same for O=C1CCC(N2C(=O)c3cccc(NCCCC4CCN(CCNC(=O)c5cc6c(o5)C(=O)c5ccccc5C6=O)CC4)c3C2=O)C(=O)N1 (stereo not given) please 0.284 µM

What would you report for O=C(CCc1nc(=S)[nH][nH]1)Nc1cccc(C(F)(F)F)c1 ? > 100 µM

---
Request the reported TGI associated with CCOP(=O)(OCC)C1(O)CC(n2cc(C)c(=O)[nH]c2=O)OC1CO (stereo not given) > 100 µM

Proceed to CN1Cc2c(nc(-c3ccc(Br)cc3)c[n+]2[O-])N(C)C1 > 100 µM

Can you handle CCCCc1c2c(nc3c1CCc1cc4cc5c(nc4nc1-3)-c1nc3c(c(CCCC)c1CC5)CCC/C3=C\c1ccccc1)/C(=C/c1ccccc1)CCC2 next? > 100 µM

----------
Tested on: HS 578T breast
EXPERIMENT NOTES: NCI tumour cell line growth inhibition, 48 h
PROPERTY MEASURED: TGI (µM)
Your answer is read as µM, so omit the unit and give the number.

Please review the entries below; each comes with its answer.
Find the recorded TGI belonging to CCN(CC)CCCC(C)Nc1c(-c2ccccc2)cnc2cc(Cl)ccc12 (configuration not stated) and report it. 24.7

Okay, and Nc1ncccc1-c1nc2ccc(-c3ccccc3)nc2n1-c1ccc(C2(N)CCC2)cc1 ? 2.31

How about C[C@H]1c2ccccc2CN1CCCOc1cc2c(cc1OCC1CC1)C1(CCCC1)C(N)=N2 ? 9.44

Next: CN(CCc1ccc(Cl)c(Cl)c1)CCN(C)CCN1CCCC1 46.3

Do the same for O=C(Nc1cnc(C(F)(F)F)cn1)c1cc(Cl)ccc1O please 26.4

Follow-up item: COc1cc(/C=C/[N+](=O)[O-])cc(OC)c1OC 28.1

# iterate: C/C=C/[C@H]1O[C@@](O)([C@@H](C)[C@H](O)[C@H](C)[C@H]2OC(=O)/C(OC)=C/C(C)=C/[C@@H](C)[C@@H](O)[C@@H](CC)[C@@H](O)[C@H](C)C/C(C)=C/C=C/[C@@H]2OC)C[C@H](OC2CC(O)C(OC(N)=O)C(C)O2)[C@@H]1C (some centres not stated) 48

Now the same for Nc1n[nH]c(N)c1N=Nc1ccc(O)cc1 77.8

// below: TGI requested for another compound
I'd like to know its TGI. The compound in question is CC(C)(C)c1cc(C(=O)/C=C/c2ccn[nH]2)cc(C(C)(C)C)c1O 9.22

----------
System: DU-145 prostate
EXPERIMENT NOTES: NCI tumour cell line growth inhibition, 48 h
Each entry below lists one item and its recorded TGI value.

Record request: TGI value, item Oc1nc(N/N=C/c2ccccc2)[nH]c1/C=C1\C=Nc2ccccc21 > 100 µM

Then COc1ccc2c(c1)CC1Cc3ccccc3CCN1C2 (stereo not given) ? > 100 µM

And what about the compound CC(C)C(C/C=C1/CC(CO)(COC(=O)C2CCCCC2)OC1=O)C(C)C (stereo not given) ? 28.8 µM

Try CN(C)C(=O)C(F)(F)C(c1ccc(Br)cc1)C1C(=O)N(C)C(=O)N(C)C1=O (stereo not given) next. > 100 µM

And COC(=O)/C=C/c1cc(OC)c2oc(-c3ccc(OC)c(OC)c3)c(C(=O)OC)c2c1 ? > 100 µM

Try Oc1ccc(Cl)cc1C1=N/C(=N\C/N=C2\N=C(c3cc(Cl)ccc3O)CC(c3ccccc3)N2)NC(c2ccccc2)C1 (stereo not given) next. > 100 µM

Would you kindly repeat that for O=C(Nc1cnc(C(F)(F)F)cn1)c1cc(Cl)ccc1O ? > 100 µM

Let us now turn to Nc1ccc(-c2nc3ccc(F)cc3s2)cc1 98.6 µM

Continue with COc1cc([C@H]2Oc3c(OC)cc(CCCO)cc3[C@@H]2CO)ccc1O > 100 µM

Would you mind doing O=c1[nH]cnc2sc(=S)c3c(c12)CCC3 as well? > 100 µM

Now consider COc1ccc(Oc2ccccc2NC(=O)CNC(=O)c2cccc3ccccc23)cc1 and answer again. > 25 µM

# repeat for NS(=O)(=O)c1cccc(-c2ccc3c(NC(=O)C4CC4)n[nH]c3c2)c1 > 25 µM

Another compound to look at: O=C(N/N=C/c1ccc(Cl)cc1)c1cc(I)cc(I)c1O > 100 µM

Next up: CCOP(=O)(OCC)C1(O)CC(n2cc(C)c(=O)[nH]c2=O)OC1CO (stereo not given) > 100 µM

Would you kindly repeat that for O=C(O)COc1ccc(C(=O)/C(SS/C(C(=O)c2ccc(OCC(=O)O)c(Cl)c2Cl)=C2\C=C(c3ccc(Br)cc3)SS2)=C2/C=C(c3ccc(Br)cc3)SS2)c(Cl)c1Cl ? > 100 µM

What about COc1cc(/C=C2\Cc3cc(OC)c(OC)cc3C2=O)cc(OC)c1 ? > 100 µM

Query O=C(/C=C(\O)c1ccccc1)/C(=C/C(=O)c1ccccc1)NN=C(c1ccccc1)c1ccccc1 next > 100 µM

Quick one: CN(c1ccc(C#N)c(Cl)c1)C1CCC(NC(=O)c2ccc(N3CCN(C4CN(c5ccc6c(c5)C(=O)N(C5CCC(=O)NC5=O)C6=O)C4)CC3)cc2)CC1 (stereo not given) > 100 µM

Repeat for the following compound: CN(C)Cc1cc(C(=O)/C=C/c2cccc(Cl)c2)cc(CN(C)C)c1O 19.2 µM

Next: CCN(CC)CCC(CNc1c(C)cnc2cc(Cl)ccc12)c1ccc(Cl)cc1 (stereo not given) 26 µM

----------
Test system: SW-620 colon
EXPERIMENT NOTES: NCI tumour cell line growth inhibition, 48 h; in the data active means GI50 below about 0.43 µM; inactive means the rest
Respond using exactly one of the listed classes: active, inactive

Fill in: this test's call for COc1cc(/C=C/[N+](=O)[O-])cc(OC)c1OC is ___ inactive

And then CC1=C(C(=O)Nc2ccc(F)c(Cl)c2)C(c2ccccc2O)NC(=O)N1 (stereo not drawn) , what is it? inactive

Another compound to look at: COc1cc(OC)cc(-c2n/c(=C\c3c(O)[nH]c4ccc(Cl)cc34)cc3c2=Nc2ccccc2-3)c1 inactive

Try O=C(Nc1cnc(C(F)(F)F)cn1)c1cc(Cl)ccc1O next. active

Please give the result for CCN(CC)CCCC(C)Nc1c(-c2ccccc2)cnc2cc(Cl)ccc12 (stereo not drawn) too. inactive

New cases:
What call does the record list for Cc1cccc2c(Nc3ccc(NS(C)(=O)=O)cc3)c3ccc([N+](=O)[O-])cc3nc12 ? inactive

Also COc1ccc2c(c1)C(=O)c1c-2n(CCCN)c(=O)c2cc([N+](=O)[O-])ccc12 ? active

Next compound up: CCN(C(=O)CN1CCN(c2cc3c(cc2F)c(=O)c(C(=O)O)cn3CC)CC1)c1nc(-c2ccccc2)cs1 active

----------
Tested on: NCI-H522 lung
EXPERIMENT NOTES: NCI tumour cell line growth inhibition, 48 h; in the data active = GI50 below about 0.43 µM; inactive = the rest
Give your call using only these classes: 1 (yes) = active, 0 (no) = inactive

Use these answered entries as a reference point.
What classification did Nc1ncccc1-c1nc2ccc(-c3ccccc3)nc2n1-c1ccc(C2(N)CCC2)cc1 end up with in this test? 0 (no)

Next compound: COc1ccc2c(c1)/C(=C\c1c[nH]c3ccc(OC)cc13)C(=O)N2 0 (no)

And for CCN(CC)CCCC(C)Nc1c(-c2ccccc2)cnc2cc(Cl)ccc12 (stereo not given) ? 0 (no)

Follow-up item: O=C1/C(=C/c2cccc(Br)c2)COc2ccc(O)c(O)c21 1 (yes)

Okay, next one:
Returns: the outcome recorded for CC(=O)OC(C)C(OC(C)=O)C(OC(C)=O)C(/C=C/C1CC=CC(=O)O1)OC(C)=O (stereo not given) in this assay. 0 (no)

----------
Here the recorded TGI is given for each entry.
Tested on: LXFL 529 NSCLC
EXPERIMENT NOTES: NCI tumour cell line growth inhibition, 48 h

Answered examples (4):
Which TGI reading was recorded for the molecule COC(=O)C1=C(C)N(NC(=O)c2ccccc2)C2(O)CCCC(=O)C12C (stereo not drawn) ? > 100 µM

How about NC(=O)C12CC3CC(CC(Br)(C3)C1)C2 ? > 100 µM

Now this one: COC1(C)C(=O)N2C1N(C(=O)OCc1ccccc1)CC2(C)C (stereo not drawn) > 100 µM

Try this molecule too: O=C(O)[C@@H](NS(=O)(=O)c1ccc2ccccc2c1)c1ccccc1 > 100 µM

Kindly review the next molecule as well.
Param item = CC(=O)Nc1ccc(C(=O)NN2C(=O)C(Cl)C2c2ccc(O)cc2)cc1 (stereo not drawn) ; retrieve measured TGI. > 100 µM

----------
Tested on: K-562 leukemia
EXPERIMENT NOTES: NCI tumour cell line growth inhibition, 48 h; in the data active means GI50 below about 0.43 µM; inactive means the rest
Classes to choose from: true (1) (active), false (0) (inactive)

Illustrative cases are given below, each with its answer.
Each molecule tested received a call. Report the one for COc1cccc2c1[C@H]1CO[C@H]3C4C[C@H](C(=O)O)C([C@@H](C2)N13)N4C (some centres not stated) . true (1)

And for CCOC1OC(=O)[C@H]2[C@@H]1[C@@H]1CC[C@H]2O1 (some centres not stated) ? false (0)

Now this one: Cc1cc(NC(=O)c2cnc(N3CCN(CCOCCOCCOCCOCCC(=O)N[C@H](C(=O)N4C[C@H](O)C[C@H]4C(=O)N[C@@H](C)c4ccc(-c5scnc5C)cc4)C(C)(C)C)CC3)cn2)c2ncccc2c1 false (0)

Similarly, CN(c1ccc(C#N)c(Cl)c1)C1CCC(NC(=O)c2ccc(N3CCN(C4CN(c5ccc6c(c5)C(=O)N(C5CCC(=O)NC5=O)C6=O)C4)CC3)cc2)CC1 (configuration not stated) ? false (0)

---
Lab log entry: N.N.N.N.N.O=S(=O)([O-])C(F)(F)F.O=S(=O)([O-])C(F)(F)F.[Os+8] — outcome as called in the assay? false (0)

Repeat with Nc1n[nH]c2ccc([C@@H]3Nc4cc5[nH]ncc5cc4[C@H]4C5CCC(C5)[C@@H]34)cc12 (some centres not stated) true (1)

Another molecule to check: NNc1c2ccccc2nc2ccccc12 false (0)

Sourced from PubChem BioAssay (NCI)
